From: ChEMBL document CHEMBL5338774

Measured Drug uptake, listed per entry for reference.
Assay: Drug distribution in western atherogenic diet fed ApoE-/- mouse liver at […], iv administered as bolus injection measured for 60 mins by PET analysis
Type: ADME, organism-based
Conditions: in vivo, 1 h

[
  {
    "record smiles": "[11CH3]Oc1cccc(CNC(=O)c2nc3ccc(F)c(OCCc4ccc(C(=O)O)cc4)c3c(=O)[nH]2)c1",
    "Drug uptake / %ID/cc": 25.29
  },
  {
    "record smiles": "Cc1cc(CNC(=O)c2nc3ccc(F)c(OCC[18F])c3c(=O)[nH]2)ccc1F",
    "Drug uptake / %ID/cc": 6.43
  },
  {
    "record smiles": "Cc1cc(CNC(=O)c2nc3ccc(F)c(OCCc4ccc(O[11CH3])cc4)c3c(=O)[nH]2)ccc1F",
    "Drug uptake / %ID/cc": 9.3
  }
]
